Each entry below carries its recorded Ki.
Test: Displacement of [3H]5-HT from 5-hydroxytryptamine 1 receptor of rat cortical membrane homogenates
Give the value, in units of µM, as a plain number.

Known Ki results, listed for orientation:
Compound: NC1CCc2ccccc2C1 (stereo not drawn)
Recorded Measurement: 0.38

Compound: COc1cccc2ccc(N3CCCCC3)nc12
Recorded Measurement: 33

Compound: COc1cccc2ccc(N3CCNCC3)nc12
Recorded Measurement: 0.415

Compound: CCCN(CCC)c1ccc2cccc(OC)c2n1
Recorded Measurement: 45

Compound: c1ccc2c(N3CCNCC3)cccc2c1
Recorded Measurement: 0.005

Record request: Ki value, item Nc1cnc2ccccc2c1
56

Now give it for CCCN(CCC)c1ccc2ccccc2n1 too.
25

Same read-out for c1ccc2cc(N3CCNCC3)ccc2c1 ?
0.265

Same again, this time with c1ccc2nc(N3CCNCC3)ccc2c1
0.23

Also check COc1cccc2ccc(N)nc12
10.4

Here is the next compound: COc1cccc2ccc(N3CCN(C)CC3)nc12
1.9

Cool, now c1ccc(N2CCNCC2)cc1
0.135

* * *

Measured Ki, listed per entry.
Molecular target: Serotonin 2 (5-HT2) receptor (Rattus norvegicus, UniProt P30994+P08909+P14842)
Test: Displacement of [3H]ketanserin from 5-hydroxytryptamine 2 receptor of rat cortical membrane homogenates
Give a bare numeral; the unit µM is implied.

Some compounds with recorded Ki:
Compound: CCCN(CCC)c1ccc2ccccc2n1
Uom: µM
Recorded Measurement: 50
//
Compound: COc1cccc2ccc(N3CCN(C)CC3)nc12
Uom: µM
Recorded Measurement: 1.2
//
Compound: COc1cccc2ccc(N)nc12
Uom: µM
Recorded Measurement: 35
//
Compound: CCCN(CCC)c1ccc2cccc(OC)c2n1
Uom: µM
Recorded Measurement: 50
//
Compound: COc1cccc2ccc(N3CCCCC3)nc12
Uom: µM
Recorded Measurement: 71
//
Compound: NC1CCc2ccccc2C1 (stereo not drawn)
Uom: µM
Recorded Measurement: 11.1
//
Compound: COc1cccc2ccc(N3CCNCC3)nc12
Uom: µM
Recorded Measurement: 0.31
//
Compound: c1ccc2nc(N3CCNCC3)ccc2c1 [QUIPAZINE]
Uom: µM
Recorded Measurement: 0.23
//
Compound: c1ccc2cc(N3CCNCC3)ccc2c1
Uom: µM
Recorded Measurement: 0.07
//
Compound: c1ccc2c(N3CCNCC3)cccc2c1
Uom: µM
Recorded Measurement: 0.018

Please examine the following record next.
Form field: reported Ki of c1ccc(N2CCNCC2)cc1 [PHENYLPIPERAZINE]
2.1
